quantity kind: melting point

Example entries and their recorded answers appear below.
molecule="O=C(O)C(CCc1cccs1)Oc1ccc(C(F)(F)F)cc1 (stereo not drawn) [Example 229]" quantity_kind="melting point" recorded_value="116 to 118 °C"
molecule="O=C(O)C(CCc1ccco1)Oc1ccc(C(F)(F)F)cc1 (stereo not drawn) [Example 228]" quantity_kind="melting point" recorded_value="99 to 99.5 °C"
molecule="O=C(O)[C@H](CCc1ccccc1)Oc1ccc(-c2ccsc2)cc1 [Example 8]" quantity_kind="melting point" recorded_value="176 to 177 °C"
molecule="O=C(O)[C@H](CCc1ccccc1)Oc1ccc(-c2cccnc2)cc1 [Example 7]" quantity_kind="melting point" recorded_value="140 °C"
molecule="O=C(O)C(CCc1cccc(Cl)c1)Oc1ccc(-c2cc3ccccc3s2)cc1 (stereo not drawn) [Example 141]" quantity_kind="melting point" recorded_value="109 to 110 °C"

Note: attention shifts to another entry.
Query: # lookup: melting point of O=C(c1ccc(Cl)cc1)c1ccc(O[C@@H](CCc2ccccc2)C(=O)O)cc1 [Example 6]
Reply: 148 °C

---

quantity kind: melting point

molecule=O=C(O)[C@H](CCc1ccccc1)Oc1ccc(-c2cccs2)cc1 recorded_value="151 to 153 °C"
molecule=Cc1nc(-c2ccc(O[C@@H](CCc3ccccc3)C(=O)O)cc2)cs1 recorded_value="150 to 152 °C"
molecule="COc1ccc(CCC(Oc2ccc(-c3cc4ccccc4s3)cc2)C(=O)O)cc1 (centres unmarked)" recorded_value="198 to 199 °C"
molecule="O=C(O)C(CCc1ccco1)Oc1ccc(Br)cc1 (centres unmarked)" recorded_value="102 to 104 °C"

Query: # lookup: melting point of O=C(O)C(CCc1ccc(F)cc1)Oc1ccc(-c2cc3ccccc3s2)cc1 (centres unmarked)
Reply: 188 to 190 °C
